# system.tested: recombinant human GluN1/GluN2A receptor (Homo sapiens, UniProt Q05586+Q12879)
# Construct: expressed in transfected cells; host or cells: HEK293, tetracycline-inducible expression
# Sequence (Q12879 23-1464, other chains not shown): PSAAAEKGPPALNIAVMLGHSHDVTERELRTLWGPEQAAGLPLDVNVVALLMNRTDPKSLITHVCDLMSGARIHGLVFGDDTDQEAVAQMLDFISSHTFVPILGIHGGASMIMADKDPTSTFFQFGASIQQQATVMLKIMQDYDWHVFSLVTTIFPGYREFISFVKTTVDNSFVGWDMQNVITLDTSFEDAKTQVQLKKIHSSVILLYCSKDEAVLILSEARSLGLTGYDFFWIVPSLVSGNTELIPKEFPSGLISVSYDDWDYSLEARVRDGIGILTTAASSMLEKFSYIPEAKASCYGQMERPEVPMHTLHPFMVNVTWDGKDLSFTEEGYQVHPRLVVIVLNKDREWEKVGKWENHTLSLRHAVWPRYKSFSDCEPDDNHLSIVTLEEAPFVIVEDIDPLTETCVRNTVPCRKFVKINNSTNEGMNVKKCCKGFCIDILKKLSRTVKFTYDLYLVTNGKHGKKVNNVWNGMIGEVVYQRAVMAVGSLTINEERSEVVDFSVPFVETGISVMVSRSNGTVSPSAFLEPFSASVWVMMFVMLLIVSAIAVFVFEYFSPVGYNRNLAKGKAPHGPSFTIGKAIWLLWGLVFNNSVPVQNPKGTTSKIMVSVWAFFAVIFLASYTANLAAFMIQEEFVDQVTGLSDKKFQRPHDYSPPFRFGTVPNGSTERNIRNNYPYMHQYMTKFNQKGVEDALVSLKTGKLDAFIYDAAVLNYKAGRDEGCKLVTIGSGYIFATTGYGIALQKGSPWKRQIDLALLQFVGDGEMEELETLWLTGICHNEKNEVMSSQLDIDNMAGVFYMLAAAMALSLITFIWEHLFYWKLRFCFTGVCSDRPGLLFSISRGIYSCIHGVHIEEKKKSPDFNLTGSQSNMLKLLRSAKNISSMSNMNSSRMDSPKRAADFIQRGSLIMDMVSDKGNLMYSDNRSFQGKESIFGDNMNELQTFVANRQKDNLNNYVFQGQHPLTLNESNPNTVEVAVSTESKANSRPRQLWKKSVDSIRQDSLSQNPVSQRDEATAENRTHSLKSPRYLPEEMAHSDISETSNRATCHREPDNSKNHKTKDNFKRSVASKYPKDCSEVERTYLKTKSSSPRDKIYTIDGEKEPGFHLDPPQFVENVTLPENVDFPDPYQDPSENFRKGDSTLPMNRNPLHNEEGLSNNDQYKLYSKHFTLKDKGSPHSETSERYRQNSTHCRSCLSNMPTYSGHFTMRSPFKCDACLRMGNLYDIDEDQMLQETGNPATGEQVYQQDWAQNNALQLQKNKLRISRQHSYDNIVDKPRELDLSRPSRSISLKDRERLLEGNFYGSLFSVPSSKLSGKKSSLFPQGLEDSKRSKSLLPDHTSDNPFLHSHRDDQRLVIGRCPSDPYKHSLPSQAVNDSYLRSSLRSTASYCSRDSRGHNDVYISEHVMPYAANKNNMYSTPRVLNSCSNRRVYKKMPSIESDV
# assay.protocol: Whole-cell patch clamp of mammalian cells (Syncropatch 384i), NMDA modulation
# Format: cell-based
# run.conditions: Table B-2; HEK293 cells, human GluN1/GluN2A; glutamate 1 μM / glycine 100 μM; -80 mV; peak amplitude increase; read-out: EC50
pEC50: −log10 of the molar value.
Could you please report measured pEC50 for the items listed next?

Recorded results for 3 molecules are shown here.
chemical.structure | pEC50
CC[C@]1(O)CC[C@@]2(C)[C@@H](CC[C@@H]3[C@@H]2CC[C@@]2(C)[C@H]3C[C@H]3C[C@]32[C@H](C)CC[C@@](C)(O)C(F)(F)F)C1 | 7.00 to 9.00
CC[C@]1(O)CC[C@@]2(C)[C@@H](CC[C@H]3[C@@H]4[C@@H]5C[C@@H]5[C@H]([C@H](C)CC[C@@](C)(O)C(F)(F)F)[C@@]4(C)CC[C@@H]32)C1 | 6.30 to 7.00
CC[C@]1(O)CC[C@@]2(C)[C@@H](CC[C@@H]3[C@@H]2CC[C@]2(C)[C@@H]([C@H](C)CCCC(C)(C)O)[C@H](C)C[C@@H]32)C1 | 6.30 to 7.00

Please go through the list and note pEC50 for each molecule.
1. CC[C@]1(O)CC[C@@]2(C)[C@@H](CC[C@H]3[C@@H]4[C@@H](C)C[C@H]([C@H](C)CC[C@@](C)(O)C(F)(F)F)[C@@]4(C)CC[C@@H]32)C1
2. CC[C@]1(O)CC[C@@]2(C)[C@@H](CC[C@H]3[C@@H]4[C@@H](C)C[C@H]([C@H](C)CC[C@](C)(O)C(F)(F)F)[C@@]4(C)CC[C@@H]32)C1
3. CC[C@]1(O)CC[C@@]2(C)[C@@H](CC[C@@H]3[C@@H]2CC[C@]2(C)[C@@H]([C@H](C)CC[C@@H](O)C(C)C)[C@H](C)C[C@@H]32)C1
4. CC[C@]1(O)CC[C@@]2(C)[C@@H](CC[C@H]3[C@@H]4[C@H]5C[C@H]5[C@H]([C@H](C)CC[C@](C)(O)C(F)(F)F)[C@@]4(C)CC[C@@H]32)C1
5. CC[C@]1(O)CC[C@@]2(C)[C@@H](CC[C@H]3[C@@H]4[C@@H](C)C[C@H]([C@H](C)CCCC(C)(C)O)[C@@]4(C)CC[C@@H]32)C1
6. CC[C@]1(O)CC[C@@]2(C)[C@@H](CC[C@H]3[C@@H]4[C@@H]5C[C@@H]5[C@H]([C@H](C)CC[C@](C)(O)C(F)(F)F)[C@@]4(C)CC[C@@H]32)C1

Response given:
6.30 to 7.00
7.00 to 9.00
6.30 to 7.00
6.30 to 7.00
7.00 to 9.00
7.00 to 9.00
